Data origin: patent US12227488B2

- Tested System: CRBN and Helios (IKZF2) (Homo sapiens, UniProt Q96SW2+Q9UKS7)
- Construct: His (N); Strep (N)
- Sequence (Q96SW2 whole entry): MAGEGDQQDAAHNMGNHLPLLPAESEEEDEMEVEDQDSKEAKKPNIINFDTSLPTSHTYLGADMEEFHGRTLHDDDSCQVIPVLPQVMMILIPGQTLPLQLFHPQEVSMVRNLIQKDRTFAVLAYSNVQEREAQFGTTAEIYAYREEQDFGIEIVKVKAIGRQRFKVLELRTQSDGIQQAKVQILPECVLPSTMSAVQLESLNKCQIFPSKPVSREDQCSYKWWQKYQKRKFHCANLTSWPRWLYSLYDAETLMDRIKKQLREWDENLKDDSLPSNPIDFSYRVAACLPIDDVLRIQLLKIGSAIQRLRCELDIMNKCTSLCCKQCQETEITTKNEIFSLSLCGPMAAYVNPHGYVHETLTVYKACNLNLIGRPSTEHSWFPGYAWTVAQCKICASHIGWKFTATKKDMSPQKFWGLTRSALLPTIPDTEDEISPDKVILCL
- Sequence (Q9UKS7 whole entry): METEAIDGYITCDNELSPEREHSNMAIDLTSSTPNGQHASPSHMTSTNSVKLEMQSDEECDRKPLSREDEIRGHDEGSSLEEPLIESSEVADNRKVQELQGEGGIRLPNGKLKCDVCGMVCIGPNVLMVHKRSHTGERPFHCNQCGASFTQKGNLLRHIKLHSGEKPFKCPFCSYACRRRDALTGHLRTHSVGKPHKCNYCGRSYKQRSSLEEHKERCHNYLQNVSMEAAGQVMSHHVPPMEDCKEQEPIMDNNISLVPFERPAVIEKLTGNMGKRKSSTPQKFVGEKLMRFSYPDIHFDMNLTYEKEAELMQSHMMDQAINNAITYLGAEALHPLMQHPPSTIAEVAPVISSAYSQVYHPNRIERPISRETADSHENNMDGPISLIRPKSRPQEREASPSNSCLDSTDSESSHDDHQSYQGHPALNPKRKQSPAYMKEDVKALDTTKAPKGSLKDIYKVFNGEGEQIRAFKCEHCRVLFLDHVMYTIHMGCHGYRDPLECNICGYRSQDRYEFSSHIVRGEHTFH
- Assay Notes: TR-FRET dimerization assay (CRBN-IKZF2 ternary complex formation)
- Assay type: binding
- Conditions: compound concentration 6.6667E−06; n=1
// assign fulfilled if TR-FRET-IKZF2 (Normalized to CC-885) falls strictly below 0.4, else not fulfilled (ties count as not fulfilled)

>>> label_class("O=C1CCC(N2C(=O)C=C(Nc3cccc(CNC(=O)Nc4ccccc4)c3)C2=O)C(=O)N1 (centres unmarked) [Compound 119]")
"not fulfilled"
>>> label_class("Cc1ccc(N(C)C(=O)CCc2cccc(NC3=CC(=O)N(C4CCC(=O)NC4=O)C3=O)c2)cc1Cl (centres unmarked) [Compound 127]")
"not fulfilled"
>>> label_class("O=C1CCC(N2C(=O)C=C(Nc3cccc(CNC(=O)Nc4ccc(Cl)c(Cl)c4)c3)C2=O)C(=O)N1 (centres unmarked) [Compound 59]")
"not fulfilled"
>>> label_class("O=C1CCC(N2C(=O)C=C(Nc3cccc(NC(=O)Nc4ccc(Cl)c(Cl)c4)c3)C2=O)C(=O)N1 (centres unmarked) [Compound 56]")
"fulfilled"
>>> label_class("Cc1ccc(NC(=O)N(C)Cc2cccc(NC3=CC(=O)N(C4CCC(=O)NC4=O)C3=O)c2)cc1Cl (centres unmarked) [Compound 52]")
"not fulfilled"
>>> label_class("O=C1CCC(N2C(=O)C=C(Nc3nc[nH]n3)C2=O)C(=O)N1 (centres unmarked) [Compound 18]")
"fulfilled"
>>> label_class("CN(C)C(=O)c1cccc(NC2=CC(=O)N(C3CCC(=O)NC3=O)C2=O)c1 (centres unmarked) [Compound 33]")
"not fulfilled"
>>> label_class("O=C1CCC(N2C(=O)C=C(Nc3ccc(Cc4ccccc4)cc3)C2=O)C(=O)N1 (centres unmarked) [Compound 39]")
"fulfilled"
>>> label_class("COC(=O)c1n[nH]c(NC2=CC(=O)N(C3CCC(=O)NC3=O)C2=O)n1 (centres unmarked) [Compound 20]")
"fulfilled"
>>> label_class("O=C1CCC(N2C(=O)C=C(Nc3cccc(Cl)c3)C2=O)C(=O)N1 (centres unmarked) [Compound 26]")
"fulfilled"
>>> label_class("O=C1CCC(N2C(=O)C=C(Nc3ccc(-n4ccnc4)cc3)C2=O)C(=O)N1 (centres unmarked) [Compound 29]")
"fulfilled"
>>> label_class("Cc1ccc(NC(=O)NCc2cccc(NC3=CC(=O)N(C4CCC(=O)NC4=O)C3=O)c2)cc1Cl (centres unmarked) [Compound 44]")
"not fulfilled"
>>> label_class("CN(C)C(=O)Cc1cccc(NC2=CC(=O)N(C3CCC(=O)NC3=O)C2=O)c1 (centres unmarked) [Compound 35]")
"not fulfilled"
>>> label_class("O=C1CCC(N2C(=O)C=C(Nc3ccccc3)C2=O)C(=O)N1 (centres unmarked) [Compound 2]")
"fulfilled"
>>> label_class("O=C1CCC(N2C(=O)C=C(Nc3ccc(-c4ccccc4)cc3)C2=O)C(=O)N1 (centres unmarked) [Compound 38]")
"fulfilled"
>>> label_class("Cc1ccc(NC(=O)NCc2cc(NC(=O)N(C)C)cc(NC3=CC(=O)N(C4CCC(=O)NC4=O)C3=O)c2)cc1Cl (centres unmarked) [Compound 112]")
"fulfilled"

---

Overview of recorded IKZF1 GFP/RFP Relative Abundance for various compounds
- Tested System: IKZF1 (Homo sapiens, UniProt Q13422)
- Construct: expressed in transfected cells; host or cells: Flp-In 293
- Sequence (Q13422 83-213 isoform Q13422-7 limits assumed): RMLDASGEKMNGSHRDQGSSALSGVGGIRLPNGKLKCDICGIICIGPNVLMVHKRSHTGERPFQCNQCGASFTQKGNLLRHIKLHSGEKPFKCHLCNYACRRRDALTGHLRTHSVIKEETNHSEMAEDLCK
- Sequence (Q96SW2 whole entry partner): as the sequence (Q96SW2 whole entry) above
- Sequence (Q16531 2-1140 partner limits assumed): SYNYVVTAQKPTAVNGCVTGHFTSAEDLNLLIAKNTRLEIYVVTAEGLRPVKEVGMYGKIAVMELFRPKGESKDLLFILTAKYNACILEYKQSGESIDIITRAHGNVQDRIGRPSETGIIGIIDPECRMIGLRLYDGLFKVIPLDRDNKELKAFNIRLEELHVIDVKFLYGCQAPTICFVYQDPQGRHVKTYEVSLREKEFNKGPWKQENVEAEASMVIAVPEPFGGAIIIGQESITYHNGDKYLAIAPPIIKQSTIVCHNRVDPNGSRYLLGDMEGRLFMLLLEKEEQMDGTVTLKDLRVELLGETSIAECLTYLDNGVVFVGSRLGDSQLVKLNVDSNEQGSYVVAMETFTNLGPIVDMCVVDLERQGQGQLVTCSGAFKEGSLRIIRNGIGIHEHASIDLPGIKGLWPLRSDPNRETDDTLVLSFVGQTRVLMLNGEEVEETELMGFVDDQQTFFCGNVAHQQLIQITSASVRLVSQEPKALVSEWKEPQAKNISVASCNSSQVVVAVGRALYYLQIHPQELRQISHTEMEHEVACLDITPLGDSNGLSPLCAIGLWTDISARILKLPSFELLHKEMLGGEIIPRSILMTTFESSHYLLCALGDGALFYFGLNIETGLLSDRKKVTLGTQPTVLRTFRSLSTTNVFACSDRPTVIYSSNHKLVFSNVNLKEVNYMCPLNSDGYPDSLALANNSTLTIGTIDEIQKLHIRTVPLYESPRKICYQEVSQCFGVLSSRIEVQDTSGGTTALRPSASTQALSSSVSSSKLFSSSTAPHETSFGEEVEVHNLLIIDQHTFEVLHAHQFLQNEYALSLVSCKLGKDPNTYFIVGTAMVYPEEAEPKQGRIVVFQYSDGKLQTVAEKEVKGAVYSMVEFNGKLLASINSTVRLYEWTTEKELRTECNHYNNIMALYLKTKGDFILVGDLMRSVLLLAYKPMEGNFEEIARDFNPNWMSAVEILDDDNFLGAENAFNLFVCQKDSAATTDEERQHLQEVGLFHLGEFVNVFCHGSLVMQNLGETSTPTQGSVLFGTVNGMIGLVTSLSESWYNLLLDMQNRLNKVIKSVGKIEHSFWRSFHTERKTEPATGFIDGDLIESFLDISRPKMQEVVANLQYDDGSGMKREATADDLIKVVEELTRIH
- Assay Notes: Cellular degradation assay, eGFP-IKZF1Δ fusion with mCherry reporter in Flp-In 293 cells
- Format: cell-based
- Conditions: compound concentration 2.00E−05; 5 h incubation; n=1
Endpoint Label: IKZF1 GFP/RFP Relative Abundance

>>> recorded_measurement("O=C1CCC(N2C(=O)C=C(Nc3ccc(Cl)cc3)C2=O)C(=O)N1 (stereo not shown) [Compound 25]")
0.258
>>> recorded_measurement("O=C1CCC(N2C(=O)C=C(Nc3cccc(-c4nnn[nH]4)c3)C2=O)C(=O)N1 (stereo not shown) [Compound 23]")
0.866
>>> recorded_measurement("Cc1cc(CNC(=O)NC(C)c2cccc(NC3=CC(=O)N(C4CCC(=O)NC4=O)C3=O)c2)ccc1Cl (stereo not shown) [Compound 120]")
0.094
>>> recorded_measurement("Cc1ccc(NC(=O)NCc2ccc3c(c2)CN(C2CCC(=O)NC2=O)C3=O)cc1Cl (stereo not shown) [CC-885, reference compound]")
0.133
>>> recorded_measurement("O=C(O)CCCCNC1=CC(=O)N(C2CCC(=O)NC2=O)C1=O (stereo not shown) [Compound 22]")
0.984
>>> recorded_measurement("Cc1ccc(NC(=O)Nc2cccc(NC3=CC(=O)N(C4CCC(=O)NC4=O)C3=O)c2)cc1C (stereo not shown) [Compound 55]")
0.471
>>> recorded_measurement("Cc1ccc(CNC(=O)CCc2cccc(NC3=CC(=O)N(C4CCC(=O)NC4=O)C3=O)c2)cc1Cl (stereo not shown) [Compound 121]")
0.125
>>> recorded_measurement("Cc1ccc(NC(=O)NCCc2cccc(NC3=CC(=O)N(C4CCC(=O)NC4=O)C3=O)c2)cc1C(F)(F)F (stereo not shown) [Compound 126]")
0.177
>>> recorded_measurement("Cc1ccc(NC(=O)NCc2ccc(NC3=CC(=O)N(C4CCC(=O)NC4=O)C3=O)cc2)cc1Cl (stereo not shown) [Compound 46]")
0.045
>>> recorded_measurement("O=C(Cc1ccc(Cl)c(Cl)c1)NCc1cccc(NC2=CC(=O)N(C3CCC(=O)NC3=O)C2=O)c1 (stereo not shown) [Compound 61]")
0.111
>>> recorded_measurement("Cc1ccc(NC(=O)N2Cc3ccc(NC4=CC(=O)N(C5CCC(=O)NC5=O)C4=O)cc3C2)cc1Cl (stereo not shown) [Compound 107]")
0.245
>>> recorded_measurement("Cc1ccc(NC(=O)N(C)Cc2cccc(NC3=CC(=O)N(C4CCC(=O)NC4=O)C3=O)c2)cc1Cl (stereo not shown) [Compound 52]")
0.103
>>> recorded_measurement("O=C1CCC(N2C(=O)C=C(Nc3nccs3)C2=O)C(=O)N1 (stereo not shown) [Compound 19]")
0.216
>>> recorded_measurement("Cc1cc(CNC(=O)NCc2cccc(NC3=CC(=O)N(C4CCC(=O)NC4=O)C3=O)c2)ccc1Cl (stereo not shown) [Compound 82]")
0.085
>>> recorded_measurement("CN(C1=CC(=O)N(C2CCC(=O)NC2=O)C1=O)c1ccccc1 (stereo not shown) [Compound 28]")
0.978
>>> recorded_measurement("Cc1ccc(CNC(=O)c2cccc(NC3=CC(=O)N(C4CCC(=O)NC4=O)C3=O)c2)cc1Cl (stereo not shown) [Compound 122]")
0.076
